Listed molecules paired with reported Solubility ratio
details: human, 20000 µM
Description: Solubility ratio ([HbS+drug (20 mM)]/[HbS-drug]
Form rule: numeric answer, no unit written next to it.

Worked examples follow.
Cc1cc(OCC(=O)O)ccc1Cl; 1.171
Cc1cc(OCC(=O)O)cc(C)c1Br; 1.063
COc1cc(OC)cc(OCC(=O)O)c1; 1.12
O=C(O)CSc1cc(Cl)c(Cl)cc1Cl; 1.07
COc1cccc(OCC(=O)O)c1OC; 1.064
O=C(O)COCc1ccc(I)cc1; 1.236

Query: Identify the reported Solubility ratio for the following entry. COc1ccc(COCC(=O)O)cc1
Response: 1.054

Query: Please give measured Solubility ratio of the following entry: O=C(O)CSc1c(F)c(F)c(F)c(F)c1F
Response: 1.117

Query: Determine its reported Solubility ratio: O=C(O)COc1ccc2c(c1)oc1ccccc12
Response: 1.09

Query: Write down Solubility ratio measured for item Cc1ccc(C)c(OCC(=O)O)c1
Response: 1.114

Query: Entry Cc1cc(C)cc(OCC(=O)O)c1 needs its Solubility ratio filled in; supply it.
Response: 1.141
